target: T1, human Claudin18.2 (CLDN18.2), full length, on cells (human); assay: FACS on NUGC4 cells
T1 construct: also called CLDN18.2-FL; HEK293-CLDN18.2 cells
Entries and their measured MFI (CLDN18.2) follow.
Value expressed in MFI; do not type the unit.

| Binder | Unit label | Value |
| --- | --- | --- |
| 309CHI (antibody, human IgG1, V domains shown, chimeric with the constant region of human IgG1) VH: EVKLVESGGGLVQPGGSLKLSCAASGFGFSDYGMAWVRQAPRKGPEWVAFISNSAYSIYYADTVTGRFTISRENAKNTLYLEMSSLRSEDTAMYYCARLGYGNSFAYWGQGTLVTVSA VL: DIVMTQSPSSLTVTAGEKVTMSCKSSQSLLNSGNQKNYLTWYQQKPGQPPKLLIYWASTRESGVPDRFTGSGSGTDFTLTISSVQAEDLAVYYCQNELFYPLTFGAGTKLELK | MFI | 42500 |
| 315CHI (antibody, human IgG1, V domains shown, chimeric with the constant region of human IgG1) VH: EVKLVESGGGLVQPGGSLKLSCAASGFTFSDYGMAWVRQAPRKGPEWVAFISNLAYSIYYADTVTGRFTISRENAKNTLYLEMSSLRSEDTAMYYCARLGRGNSFAYWGQGTLVTVSA VL: DIVMTQSPSSLTVTAGEKVTMSCKSSQSLLNSGNQKNYLTWYQQKPGQPPKLLIYWASTRESGVPDRFTGSGSGTDFTLTISSVQAEDLAVYYCQNELFYPLTFGAGTKLELK | MFI | 42300 |

Turning now to a further binder:
Form field MFI (CLDN18.2), entry 305CHI (antibody, human IgG1, V domains shown, chimeric with the constant region of human IgG1) VH: EVKLVESGGGLVQPGGSLKLSCAASGFTFSDYGMAWVRQAPRKGPEWVAFISNLAYSIYYADTVTGRFTISRENAKNTLYLEMSSLRSEDTAMYYCARLGYGNSFAYWGQGTLVTVSA VL: DIVMTQSPSSLTVTAGEKVTMSCKSSQSLLNSGNQKNYLTWYQQKPGQPPKLLIYWASTRESGVPDRFTGSGSGTDFTLTISSVQAEDLAVYYCQNELFYPLTFGAGTKLELK : 38900
